Taken from ChEMBL document CHEMBL1121747.

assay: Dissociation constant was reported; assay type: physicochemical

[
  {
    "COMPOUND": "CN(C)CCN1c2ccccc2Sc2ccc(Cl)cc21 [CHOLRPHENETHAZINE]",
    "pKa": 9.1
  }
]
